The reported numbers originate from the supplement of paper PMC9732359.

- methodDescription: protein stability index of a GFP-peptide fusion (yeast GPS) (PSI 1-4); higher = more stable; sorted into four equal gates, so the index is relative within each strain
- testContext: doa10∆
readoutName: protein stability index
Answer using only a numeral; do not append any unit.

// below: answered sequences
Look at this sequence and give its reported protein stability index. ASAPLCSPKLPVEKVQR [DLS1]
2.78

Look at this sequence and give its reported protein stability index. ERLQLLEDVVGAKSFEV [SMC3]
3.14

Look at this sequence and give its reported protein stability index. PELGDKFSSRHGQKGVC [RET1]
3.26

Look at this sequence and give its reported protein stability index. SIPNLFPTDLEIFQLFT [SWI1]
2.6

Look at this sequence and give its reported protein stability index. ITVVPVVAAAEDDDNEQ [QCR6]
1.61

Next:
Look at this sequence and give its reported protein stability index. QDKIELSEEETLLVIRR [SNF2]
2.38

Look at this sequence and give its reported protein stability index. KANEKKESDESKSAFSF [YJL041W/NSP1]
2.95

Look at this sequence and give its reported protein stability index. CVVSTDSTNLSDDAAQF [ECM29]
2.19

Look at this sequence and give its reported protein stability index. RVRVTGGGHVSQVYAIR [RPS16A]
2.61

Look at this sequence and give its reported protein stability index. EGFAADDEPTTPAELVG [FAS1]
3.3

Look at this sequence and give its reported protein stability index. SNAAGADDAISMHLLKD [SRB8]
3.17

Look at this sequence and give its reported protein stability index. ERSELLRLFNAPDSEYL [SNF2]
3.02

====

- methodDescription: protein stability index of a GFP-peptide fusion (yeast GPS) (PSI 1-4); higher = more stable; sorted into four equal gates, so the index is relative within each strain
- testContext: san1∆
Values of protein stability index greater than or equal to 3 map to 1; values below map to 0.

Could you verify whether the entry KLQSQSLHTKNVFGTLQ [YLR018C/POM34] shows protein stability index of no less than 3?
0

Could you verify whether the entry RKYEISFGKIYVTKPMV [RPB2] shows protein stability index of no less than 3?
0

====

- methodDescription: protein stability index of a GFP-peptide fusion (yeast GPS) (PSI 1-4); higher = more stable; sorted into four equal gates, so the index is relative within each strain
- testContext: doa10∆
# protein stability index listing for each entry below
Answer using only a numeral; do not append any unit.

// below: answered sequences
Look at this sequence and give its reported protein stability index. CILRFLQLPIEDKFLYG [SWI3]
1.85

Look at this sequence and give its reported protein stability index. DEYLGSHTDQPANVLLV [NNF1]
3.57

Next:
Look at this sequence and give its reported protein stability index. VSSESSDEAIIPVNKRR [SIR3]
3.31

Look at this sequence and give its reported protein stability index. AGNLITTPEINNFIVER [SRP68]
2.79

Look at this sequence and give its reported protein stability index. LTRQPTEGRSRDGGLRL [RET1]
2.07

Look at this sequence and give its reported protein stability index. GIKYHATPPLKRFKDME [SMC1]
3.1

Look at this sequence and give its reported protein stability index. RDRTSGQKLLAIKYGYE [SRB4]
2.9

Look at this sequence and give its reported protein stability index. SETREKELESIDVLLEQ [RPB4]
3.04

====

# protein stability index listing for each entry below
- methodDescription: protein stability index of a GFP-peptide fusion (yeast GPS) (PSI 1-4); higher = more stable; sorted into four equal gates, so the index is relative within each strain
- testContext: pdr5∆
Answer using only a numeral; do not append any unit.

// below: answered sequences
Look at this sequence and give its reported protein stability index. DATFAGHSLGEYAALAS [FAS1]
3

Look at this sequence and give its reported protein stability index. ALDIVCSDFVKILNLEK [NUT1]
2.7

Look at this sequence and give its reported protein stability index. TIKILPENTAMFNPLHE [YMR129W/POM152]
2.36

Look at this sequence and give its reported protein stability index. SFAKLVPCEGKDVTQGL [SMC2]
2.07

Look at this sequence and give its reported protein stability index. NSTATMQHNPLAGKRGP [PGD1]
3.09

Look at this sequence and give its reported protein stability index. LAPELNQAIWKRGVKGV [RPL31A]
2.04

Consider the record given below.
Look at this sequence and give its reported protein stability index. NTPLSLPTRGTLESLEN [COR1]
2.37

====

- methodDescription: protein stability index of a GFP-peptide fusion (yeast GPS) (PSI 1-4); higher = more stable; sorted into four equal gates, so the index is relative within each strain
- testContext: pdr5∆
# protein stability index listing for each entry below

// below: answered sequences
Look at this sequence and give its reported protein stability index. GQLLSVKFLVYQGVYSM [YML031W/NDC1]
1.75

Look at this sequence and give its reported protein stability index. KVKPIRGFCQRLKGKQG [RPO31]
2.97

Look at this sequence and give its reported protein stability index. NDGNNRTNNVPMIKAEE [NUT1]
3.31

Look at this sequence and give its reported protein stability index. PFDDDEPPLSYEQHIEN [PRP8]
2.86

Look at this sequence and give its reported protein stability index. MSRDAPIKADKDYSQIL [RPN5]
2.44

Next:
Look at this sequence and give its reported protein stability index. LELNLSVLHSWVQLVQI [YJL039C/NUP192]
1.91

Look at this sequence and give its reported protein stability index. VQISNIPDIGDLPDTEG [PRP8]
3.29

Look at this sequence and give its reported protein stability index. IYQIHIPYAAKLLFQEL [RPB2]
1.98

====

- methodDescription: protein stability index of a GFP-peptide fusion (yeast GPS) (PSI 1-4); higher = more stable; sorted into four equal gates, so the index is relative within each strain
- testContext: ubr1∆
readoutName: protein stability index
Answer using only a numeral; do not append any unit.

// below: answered sequences
Look at this sequence and give its reported protein stability index. LRLFINEEGDWSCIVVE [ITC1]
3.19

Look at this sequence and give its reported protein stability index. IMWQLLDGVSYLHQNWV [SSN3]
1.75

Look at this sequence and give its reported protein stability index. NTRKNMSISLESSKALA [DIS3]
2.08

Next:
Look at this sequence and give its reported protein stability index. IQWYKSLLEKDIDAVNG [ISW2]
2.82

Look at this sequence and give its reported protein stability index. IKLGSTAIGIATKEGVV [PUP2]
1.32

Look at this sequence and give its reported protein stability index. AVDKVISGYKKFSSTSR [RPT1]
3.74

Look at this sequence and give its reported protein stability index. GRLSLRSLTAYAPNLML [QCR10]
1.42

====

# protein stability index listing for each entry below
- methodDescription: protein stability index of a GFP-peptide fusion (yeast GPS) (PSI 1-4); higher = more stable; sorted into four equal gates, so the index is relative within each strain
- testContext: ubr1∆
Answer using only a numeral; do not append any unit.

Look at this sequence and give its reported protein stability index. SATSTTEQTKSKNPLSL [YLR335W/NUP2]
2.96

Look at this sequence and give its reported protein stability index. NLHAEGWPKLQLGPQTP [ECM29]
2.9

Look at this sequence and give its reported protein stability index. VPIKSSKSGRIFALVFS [RPN13]
2.63

Look at this sequence and give its reported protein stability index. NASLTIEDEDEPFNAGI [SMC1]
3.23

Look at this sequence and give its reported protein stability index. YIHRIGRTGRAANEGTA [PRP28]
3.29

Look at this sequence and give its reported protein stability index. ENSEPPALESSPVTGDN [SNF2]
3.22

Look at this sequence and give its reported protein stability index. LLNINGSRKVAGILRGY [SMX2]
1.52

Look at this sequence and give its reported protein stability index. FLMGIFNSVVNLSRYPK [MTR3]
2.32

Look at this sequence and give its reported protein stability index. DTTVPKRLGPKRANNIR [RPS6A]
3.37

Look at this sequence and give its reported protein stability index. ELPKKLLNLPPFQVSSF [SRB8]
1.78

Next:
Look at this sequence and give its reported protein stability index. GLESQIQEIKESVELPL [RPT2]
2.83

Look at this sequence and give its reported protein stability index. KPSNGKGSRKSSKAATP [SNF12]
3.24

Look at this sequence and give its reported protein stability index. LNGGLQFVPELKEFTAK [FAS2]
1.83

Look at this sequence and give its reported protein stability index. SRAQILQIHSRKMTTDD [RPT5]
3.08

Look at this sequence and give its reported protein stability index. IYAKQQEQLKQMDQQLQ [ARP7]
2.7

====

- methodDescription: protein stability index of a GFP-peptide fusion (yeast GPS) (PSI 1-4); higher = more stable; sorted into four equal gates, so the index is relative within each strain
- testContext: doa10∆
readoutName: protein stability index
Answer using only a numeral; do not append any unit.

Look at this sequence and give its reported protein stability index. TWIHSEIEELKSSIQNL [SMC3]
2.27

Next:
Look at this sequence and give its reported protein stability index. QLTPQQQQLVNQMKVAP [GAL11]
2.8

Look at this sequence and give its reported protein stability index. ELKIRSKTENVRRLEAQ [RPT6]
2.5

Look at this sequence and give its reported protein stability index. PLGVILTFVSVDEELGP [SCL1]
1.72

Look at this sequence and give its reported protein stability index. GNDNNSDSNANAAVAGV [SWI3]
3.21

Look at this sequence and give its reported protein stability index. IRAQNFKSALANLEDII [RRP6]
1.89
